Where do these numbers come from? They come from ChEMBL document CHEMBL5390231.

Biological target: ATP-dependent RNA helicase DHX15 (Homo sapiens)
Sequence (O43143 whole entry): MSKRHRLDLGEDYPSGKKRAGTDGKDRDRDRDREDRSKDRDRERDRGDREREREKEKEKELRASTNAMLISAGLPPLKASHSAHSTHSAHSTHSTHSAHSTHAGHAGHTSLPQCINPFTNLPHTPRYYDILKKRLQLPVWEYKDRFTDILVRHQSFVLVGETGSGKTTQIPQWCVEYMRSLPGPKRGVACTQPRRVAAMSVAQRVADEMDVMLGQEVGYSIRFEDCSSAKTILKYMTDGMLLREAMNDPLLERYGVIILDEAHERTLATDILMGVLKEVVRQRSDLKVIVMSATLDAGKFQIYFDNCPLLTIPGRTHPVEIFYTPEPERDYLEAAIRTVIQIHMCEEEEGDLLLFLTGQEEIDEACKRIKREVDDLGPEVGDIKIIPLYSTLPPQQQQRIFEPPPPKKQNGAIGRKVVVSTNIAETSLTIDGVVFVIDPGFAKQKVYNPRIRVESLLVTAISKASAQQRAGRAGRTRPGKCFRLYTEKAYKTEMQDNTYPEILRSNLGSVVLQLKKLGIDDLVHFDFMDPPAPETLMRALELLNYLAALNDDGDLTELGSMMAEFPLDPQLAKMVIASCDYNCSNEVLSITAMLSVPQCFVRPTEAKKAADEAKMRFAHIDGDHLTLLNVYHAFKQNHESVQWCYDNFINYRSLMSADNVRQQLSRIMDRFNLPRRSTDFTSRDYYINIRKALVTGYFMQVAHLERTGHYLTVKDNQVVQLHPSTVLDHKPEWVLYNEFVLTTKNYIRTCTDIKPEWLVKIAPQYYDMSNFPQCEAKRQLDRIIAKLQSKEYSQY
Assay: Inhibition of N-terminal thioredoxin-tagged human recombinant DHX15 transformed in Escherichia coli BL21(DE3)pLysS cells
PROPERTY: pIC50
For clarity, pIC50 is expressed as the negative log10 of concentration in mol/L.

Exercise: I am curious: what pIC50 value has been reported for `COc1ccc2nc(NC(=O)c3cc(C)n(-c4sc(C)cc4C#N)c3C)[nH]c2c1` ?
Solution: 5.20

* * *

Biological target: Probable ATP-dependent RNA helicase DHX40 (Homo sapiens, UniProt Q8IX18)
Sequence (Q8IX18 whole entry): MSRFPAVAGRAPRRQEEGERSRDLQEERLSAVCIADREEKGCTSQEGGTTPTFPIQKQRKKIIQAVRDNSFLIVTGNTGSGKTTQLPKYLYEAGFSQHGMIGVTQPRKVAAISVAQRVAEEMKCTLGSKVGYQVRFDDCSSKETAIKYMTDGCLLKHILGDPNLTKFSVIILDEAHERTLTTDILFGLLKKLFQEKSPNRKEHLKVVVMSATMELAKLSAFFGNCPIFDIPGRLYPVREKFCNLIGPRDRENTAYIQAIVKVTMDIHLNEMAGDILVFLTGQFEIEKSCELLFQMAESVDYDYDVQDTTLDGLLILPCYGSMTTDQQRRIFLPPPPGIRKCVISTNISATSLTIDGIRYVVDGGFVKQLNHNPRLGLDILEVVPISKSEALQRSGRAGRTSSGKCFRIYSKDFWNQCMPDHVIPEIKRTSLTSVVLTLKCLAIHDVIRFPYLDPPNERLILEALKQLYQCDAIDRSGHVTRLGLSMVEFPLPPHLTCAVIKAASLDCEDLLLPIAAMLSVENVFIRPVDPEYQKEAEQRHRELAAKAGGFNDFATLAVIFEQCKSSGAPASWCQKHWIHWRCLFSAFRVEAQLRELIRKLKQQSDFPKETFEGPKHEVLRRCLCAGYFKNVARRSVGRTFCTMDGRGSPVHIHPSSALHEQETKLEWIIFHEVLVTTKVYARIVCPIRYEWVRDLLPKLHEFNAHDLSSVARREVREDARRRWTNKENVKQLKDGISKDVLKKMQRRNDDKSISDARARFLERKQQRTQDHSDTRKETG
Experiment: Inhibition of N-terminal thioredoxin-tagged human recombinant DHX40 transformed in Escherichia coli BL21(DE3)pLysS cells
PROPERTY: IC50

Exercise: I am curious: what IC50 value has been reported for `COc1ccc2nc(NC(=O)c3cc(C)n(-c4sc(C)cc4C#N)c3C)[nH]c2c1` ?
Solution: > 100 µM
